Ref: patent US5672707A

experiment: in vivo; details: intraperitoneal injection; Table 5
met if LD50 (mg/kg) by Kerber is below 100 mg/kg. not met if not; exact matches included in not met.

[
  {
    "compound": "CCCCNc1c2c(nc3ccccc13)CC(C)(C)CC2=O [Vy]",
    "answer_label": "not met"
  },
  {
    "compound": "CCCCNc1c2c(nc3ccccc13)CC(C)(C)CC2=O [Vt]",
    "answer_label": "not met"
  },
  {
    "compound": "CC1(C)C=Cc2c(nc3ccccc3c2NCc2ccccc2)C1 [VIIl]",
    "answer_label": "not met"
  },
  {
    "compound": "CCCCNc1c2c(nc3ccccc13)CC(C)(C)CC2=O [Vaa]",
    "answer_label": "not met"
  },
  {
    "compound": "CC1(C)C=Cc2c(nc3ccccc3c2NCc2ccccc2)C1 [VIIm]",
    "answer_label": "not met"
  },
  {
    "compound": "CCCCNc1c2c(nc3ccccc13)CC(C)(C)CC2=O [Vw]",
    "answer_label": "not met"
  },
  {
    "compound": "CCCCNc1c2c(nc3ccccc13)CC(C)(C)CC2=O [Vz]",
    "answer_label": "not met"
  },
  {
    "compound": "CCCCNc1c2c(nc3ccccc13)CC(C)(C)CC2=O [Vx]",
    "answer_label": "not met"
  },
  {
    "compound": "CC1(C)C=Cc2c(nc3ccccc3c2NCc2ccccc2)C1 [VIIu]",
    "answer_label": "met"
  },
  {
    "compound": "Cc1ccc(CNc2c3c(nc4ccccc24)CC(C)(C)CC3O)c(C)c1 (centres unmarked) [VIi]",
    "answer_label": "met"
  },
  {
    "compound": "CCCCNc1c2c(nc3ccccc13)CC(C)(C)CC2=O [Vu]",
    "answer_label": "not met"
  }
]
